Assay: Cytotoxicity against human HepG2/C3A cells after 48 hrs by MTT assay
Assay type: functional, cell-based
Reported Endpoint: IC50 (nM)
Provide the reading as a plain figure in nM.

O=[N+]([O-])c1cc2c(ccc3cc(O)ccc32)o1 = 5000
COc1ccc2c(ccc3oc([N+](=O)[O-])cc32)c1 = 2240
O=[N+]([O-])c1oc2ccc3ccccc3c2c1CCO = 2040
COc1cc2ccccc2c2cc([N+](=O)[O-])oc12 = 4400
COc1ccc2ccc3oc([N+](=O)[O-])cc3c2c1 = 2280

Moving on to another compound below.
For `O=[N+]([O-])c1cc2c(ccc3ccccc32)o1` the compound record lists IC50 as 2510

====

Molecular target: Hepatocyte nuclear factor 4-alpha (Homo sapiens, UniProt P41235)
Sequence (P41235 whole entry): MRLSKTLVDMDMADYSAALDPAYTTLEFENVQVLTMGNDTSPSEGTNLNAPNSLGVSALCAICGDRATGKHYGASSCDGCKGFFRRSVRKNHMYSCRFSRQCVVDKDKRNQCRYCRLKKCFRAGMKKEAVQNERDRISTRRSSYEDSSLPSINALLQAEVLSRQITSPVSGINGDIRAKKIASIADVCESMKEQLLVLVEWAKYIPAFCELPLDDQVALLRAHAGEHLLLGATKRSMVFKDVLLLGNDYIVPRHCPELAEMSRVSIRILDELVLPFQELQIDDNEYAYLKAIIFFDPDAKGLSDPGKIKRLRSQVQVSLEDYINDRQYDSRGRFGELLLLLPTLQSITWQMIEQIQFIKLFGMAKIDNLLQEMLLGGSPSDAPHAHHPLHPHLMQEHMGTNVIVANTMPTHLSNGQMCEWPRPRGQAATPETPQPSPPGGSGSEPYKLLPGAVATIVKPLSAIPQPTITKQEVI
Experiment: Agonist activity at human full length HNF4alpha nuclear receptor expressed in human HepG2/C3A cells co-transfected with LexADBD assessed as increase in transcriptional activity after 16 hrs by beta-galactosidase one hybrid assay
# reported EC50; entries follow
Provide the reading as a plain figure in nM.

Consider the following illustrative entries.
Cc1c([N+](=O)[O-])oc2ccc3ccccc3c12 = 1280
COc1ccc2c(ccc3oc([N+](=O)[O-])cc32)c1 = 2570
COc1ccc2ccc3oc([N+](=O)[O-])cc3c2c1 = 2330

For `O=[N+]([O-])c1cc2c(ccc3cc(O)ccc32)o1` the compound record lists EC50 as 1950

For `O=[N+]([O-])c1oc2ccc3ccccc3c2c1CCO` the compound record lists EC50 as 1220

For `COc1cc2ccccc2c2cc([N+](=O)[O-])oc12` the compound record lists EC50 as 1470

For `O=[N+]([O-])c1cc2c(ccc3ccccc32)o1` the compound record lists EC50 as 2090
